Origin of measurements: patent US8053447B2

Target: h-11βHSD1 (Homo sapiens)
Sequence (P28845 whole entry): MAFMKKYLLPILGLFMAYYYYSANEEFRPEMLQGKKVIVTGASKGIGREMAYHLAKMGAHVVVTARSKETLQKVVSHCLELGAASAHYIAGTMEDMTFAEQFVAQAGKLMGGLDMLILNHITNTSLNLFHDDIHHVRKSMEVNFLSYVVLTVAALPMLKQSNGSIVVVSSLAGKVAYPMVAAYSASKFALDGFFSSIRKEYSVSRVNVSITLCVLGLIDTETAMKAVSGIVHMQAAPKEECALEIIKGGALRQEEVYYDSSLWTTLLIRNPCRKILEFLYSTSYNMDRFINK
Reported Property: IC50 (nM)

Compound: O=C(c1ccc(OC2CCN(C(=O)C3CC3)CC2)cc1)N1CC2CCC(CC2)C1 [Example B]
System Tested: h-11βHSD1 (Homo sapiens)
Reported Property: IC50
U: nM
Recorded Value: 1350
--
Compound: O=C(c1ccc(O[C@H]2CC[C@@H](NS(=O)(=O)c3ccccn3)CC2)cc1)N1CCCC2CCCCC21 (some centres unmarked) [Example 4c]
System Tested: h-11βHSD1 (Homo sapiens)
Reported Property: IC50
U: nM
Recorded Value: 51
--
Compound: O=C(c1ccc(OC2CCN(C(=O)c3ccc(Cl)nc3)C2)cc1)N1CC2CCC(CC2)C1 (centres unmarked) [Example G]
System Tested: h-11βHSD1 (Homo sapiens)
Reported Property: IC50
U: nM
Recorded Value: 1180

P = O=C(NC1C2CC3CC(C2)CC1C3)c1ccc(N2[C@@H]3CC[C@H]2CC(Oc2ccccn2)C3)cc1 (some centres unmarked) [Example 3h]
Q = O=C(O)c1ccc(S(=O)(=O)N2CCC(COc3ccc(C(=O)N4CCCC5CCCCC54)cc3)CC2)cc1 (centres unmarked) [Example 9f]
R = O=C(NC1C2CC3CC(C2)CC1C3)c1ccc(OC2CCC(C(=O)O)CC2)cc1 (mixture of isomers) [Example 4a]
S = CCS(=O)(=O)N1CCC(COc2ccc(C(=O)N(C)C3C4CC5CC3CC(O)(C5)C4)cc2)CC1 (centres unmarked) [Example 7f]
Exercise: // smallest IC50 at index 0, largest at the end Answer format: list of labels, ordered as asked.
Key: Q, R, P, S
